Assay: inhibitors of intracellular T. cruzi replication, confirmation, NIH3T3 host cells, beta-gal parasites, cherry-pick, set 2 (AID 651740);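 also: plate controls were neutral control median for no effect and positive control median for full effect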
Details: T. cruzi beta-gal in NIH3T3, GalScreen luminescence, 90 h; at 2.09 µM; hits give high values
The whole screen tested about 5,600 compounds, of which about 1,200 (21%) were called active. About 3% were inconclusive and are not listed. These entries were drawn from the full list.

[
  {
    "smiles-representation": "O=C(Cc1cccnc1)N1CCCCN2[C@@H](CO)[C@H](c3ccc(C#CC4CCCC4)cc3)[C@@H]2C1",
    "inhibition, %": 46.3
  },
  {
    "smiles-representation": "O=C(Cc1ccccn1)N1CCCCN2[C@@H](CO)[C@@H](c3ccc(C#Cc4ccccc4)cc3)[C@@H]2C1",
    "inhibition, %": 56.8
  },
  {
    "smiles-representation": "COc1ccc(C#Cc2ccc([C@H]3[C@H](CO)N4CCCCN(C(=O)Cc5ccccc5)C[C@@H]34)cc2)cc1",
    "inhibition, %": 111
  },
  {
    "smiles-representation": "C/C=C/c1ccc([C@H]2[C@H](CO)N3CCCCN(C(=O)Cc4ccncc4)C[C@@H]23)cc1",
    "inhibition, %": 82.3
  }
]
